test system: NCI-H2066 (Squamous Cell Lung Carcinoma); experiment: Bliss excess, mean over the matrix (fraction); higher = more synergy;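 further: after 72 h of two-drug dosing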
assayMetric: Bliss excess

molecule="CC1(C)CCC(CN2CCN(c3ccc(C(=O)NS(=O)(=O)c4ccc(NCC5CCOCC5)c([N+](=O)[O-])c4)c(Oc4cnc5[nH]ccc5c4)c3)CC2)=C(c2ccc(Cl)cc2)C1 [Venetoclax] + Cn1cnc2c(F)c(Nc3ccc(Br)cc3Cl)c(C(=O)NOCCO)cc21 [Selumetinib] (first compound max 1 µM, 7x7, partner max 3 µM)" result=-0.0074
molecule="C[C@@H](c1ccc2nccn2c1)n1nnc2ncc(-c3cnn(C)c3)nc21 [Savolitinib] + Cc1c2c(nn1C)CSCc1cc(n(C)n1)CSc1cc(c3ccccc3c1)OCCCc1c(C(=O)O)n(C)c3c-2c(Cl)ccc13 [AZD5991] (first compound max 1 µM, 7x7, partner max 1 µM)" result=-0.0455

---

test system: BICR22 (Oral Cavity Carcinoma); assay: Bliss excess, mean over the matrix (fraction); higher = more synergy
Reported Bliss excess values are given for each entry in this list.
assayMetric: Bliss excess

compound="C[C@@H](Nc1cc(F)cc(F)c1)c1cc(C(=O)N(C)C)cc2c(=O)cc(N3CCOCC3)oc12 [AZD8186] + C1CN(CCC1(C(=O)N[C@@H](CCO)C2=CC=C(C=C2)Cl)N)C3=NC=NC4=C3C=CN4 [AZD5363] (first compound max 10 µM, 7x7, partner max 10 µM)" numericreadout=0.0421
compound="CC1(C)CCC(CN2CCN(c3ccc(C(=O)NS(=O)(=O)c4ccc(NCC5CCOCC5)c([N+](=O)[O-])c4)c(Oc4cnc5[nH]ccc5c4)c3)CC2)=C(c2ccc(Cl)cc2)C1 [Venetoclax] + CCN(CCO)CCCOc1ccc2c(Nc3cc(CC(=O)Nc4cccc(F)c4)[nH]n3)ncnc2c1 [AZD2811] (first compound max 1 µM, 7x7, partner max 1 µM)" numericreadout=-0.0138
compound="CN(CCO)CC[C@H](CSc1ccccc1)Nc1ccc(S(=O)(=O)NC(=O)c2ccc(N3CCC([C@@H](O)c4ccccc4-c4ccc(Cl)cc4)CC3)cc2)cc1S(=O)(=O)C(F)(F)F [AZD4320] + C1CN(CCC1(C(=O)N[C@@H](CCO)C2=CC=C(C=C2)Cl)N)C3=NC=NC4=C3C=CN4 [Capivasertib] (first compound max 1 µM, 7x7, partner max 3 µM)" numericreadout=0.0051
compound="Cc1cc2ncnn2cc1Nc1ncc2c(n1)n(C1CCOCC1)c(=O)n2C [AZD7648] + COc1cc([C@@H]2c3cc4c(cc3[C@@H](O[C@@H]3O[C@@H]5CO[C@@H](C)O[C@H]5[C@H](O)[C@H]3O)[C@H]3COC(=O)[C@H]23)OCO4)cc(OC)c1O [Etoposide] (first compound max 10 µM, 7x7, partner max 10 µM)" numericreadout=0.13
compound="Cn1cnc2c(F)c(Nc3ccc(Br)cc3Cl)c(C(=O)NOCCO)cc21 [Selumetinib] + C=CCn1c(=O)c2cnc(Nc3ccc(N4CCN(C)CC4)cc3)nc2n1-c1cccc(C(C)(C)O)n1 [AZD1775] (first compound max 10 µM, partner max 1 µM)" numericreadout=-0.0362
compound="COc1cccc(OCCCN)c1-c1cc(Nc2cnc(C#N)cn2)n[nH]1 [Prexasertib] + CN(C)CCCOc1ccc(-c2ccc3ncc4c(c3c2)n(C2CCOCC2)c(=O)n4C)cn1 [AZD0156] (first compound max 1 µM, 7x7, partner max 1 µM)" numericreadout=-0.0429
compound="COc1nnc2ccc(N3CCC(c4ccc(OCCN5CCN(C)C(=O)[C@H]5C)cc4)CC3)nn12 [AZD5153] + CC1(C)CCC(CN2CCN(c3ccc(C(=O)NS(=O)(=O)c4ccc(NCC5CCOCC5)c([N+](=O)[O-])c4)c(Oc4cnc5[nH]ccc5c4)c3)CC2)=C(c2ccc(Cl)cc2)C1 [Venetoclax] (first compound max 1 µM, 7x7, partner max 1 µM)" numericreadout=-0.0613
